Experiment: Pharmacokinetic profile in beagles, single oral dose
Format: in vivo, beagle dogs
Conditions: male, dog, plasma; beagle, oral single dose 1 mg/kg, mean n=3
measure: Cmax (ng/mL)
Respond numerically; units are ng/mL and should not be typed.

// query Specify Cmax for [2H]C([2H])([2H])NCc1cc(-c2ccccc2F)n(S(=O)(=O)c2ccc(F)cc2)c1 [Example 7] and stop.
// result 397

====

Experiment: Pharmacokinetic profile in beagles, single oral dose
Assay type: in vivo, beagle dogs
Settings: male, dog, plasma; beagle, oral single dose 0.3 mg/kg, mean n=3
measure: AUC(0-t) (ng·h/mL)
Respond numerically; units are ng·h/mL and should not be typed.

// query Specify AUC(0-t) for [2H]C([2H])([2H])NCc1cc(-c2ccccc2F)n(S(=O)(=O)c2ccc(F)cc2)c1 [Example 7] and stop.
// result 808

From: patent US20250051275A1
